system: HL-60(TB) leukemia; assay: NCI tumour cell line growth inhibition, 48 h
QUANTITY MEASURED: TGI

COMPOUND	RESULT
N#C/C(=C1\NN=C(N)C(c2ccc(Cl)cc2)=C1O)c1ccc(Cl)cc1	> 100 µM
NNC(=O)CCC(=O)Nc1cc(Cl)c(Cl)cc1Cl	> 100 µM
CCN(CC)CCC1CCCCN1CC(=O)N1c2ccccc2NC(=O)c2ccccc21 (stereo not given)	> 100 µM
COc1cc2c3c(n(CCCNCC(OC)OC)c(=O)c2cc1OC)-c1cc2c(cc1C3=O)OCO2	> 28.3 µM
Cc1cc(OCc2nn(CN3CCN(C)CC3)c(=S)n2/N=C/c2ccc(-c3ccc(Cl)cc3Cl)o2)ccc1Cl	52.6 µM
Cc1ccccc1NC(=O)C(=O)CC(=O)c1sc(Nc2ccccc2[N+](=O)[O-])nc1C	> 100 µM
C=C1CC2(C[C@@H](c3ccccc3)O[C@@H](c3ccccc3)C2)OC1=O (stereo not given in full)	2.84 µM
COc1ccc2cc1Oc1ccc(cc1)C[C@@H]1c3cc(c(OC)cc3CCN1C)Oc1c(OC)c(OC)cc3c1[C@@H](C2)N(C)CC3	39.9 µM
O=c1c2c(c1=O)C1(SCCCS1)c1cc(Cl)ccc1O2	> 100 µM
COc1ccc(-c2nnc(SCC(=O)Nc3ccc(/C(C)=N\O)cc3)n2-c2ccccc2)cc1OC	> 100 µM

====

test system: UACC-62 melanoma; assay: NCI tumour cell line growth inhibition, 48 h
# maps each entry to its log10 of TGI
QUANTITY MEASURED: log10 of TGI (log10 of the value in µM)

COMPOUND	RESULT NUMBER
C[C@H]1[C@H](C)CC[C@]2(C(=O)N3CCN(C)CC3)CC[C@]3(C)C(=CC[C@@H]4[C@@]5(C)C/C(=C/c6cccnc6)C(=O)C(C)(C)[C@@H]5CC[C@]43C)[C@H]12	0.40
CN(CC(=O)O)c1ccc(/C=C/c2ccnc3ccccc23)cc1	1.72
Cc1nc2cnc3cc(F)c(-c4ccc(Oc5ncccn5)cc4Cl)cc3c2n1[C@H]1CCN(C(=O)CO)C[C@@H]1F	-1.06
CCOP(=O)(OCC)/C(C#N)=C/c1ccc(-c2ccc(F)cc2F)o1	1.37
NC(=O)c1cc([N+](=O)[O-])c(Cl)c([N+](=O)[O-])c1	0.85
CC(C)(O)C1CCC(Nc2ccc3ncc(-c4cccc(C(F)(F)F)c4)n3n2)CC1 (configuration not stated)	0.95
CCN(CCNc1ccc(C)c2sc3cc(Cl)ccc3c(=O)c12)CC(C)O (configuration not stated)	0.54

====

# maps each entry to its TGI
system: 786-0 renal; test: NCI tumour cell line growth inhibition, 48 h
QUANTITY MEASURED: TGI

COMPOUND	RESULT
CC(=O)Oc1ccc2c(C)cc(=O)oc2c1	> 100 µM
COc1ccc(C2=NN(C(=O)COc3ccc(Cl)cc3)C(O)(c3ccc(Cl)cc3)C2)cc1 (centres undefined)	> 100 µM
COc1cc(Cl)cc(N(O)C(C)=O)c1OCc1ccccc1	> 100 µM
N=c1c2c(-c3ccccc3)c(-c3ccccc3)n(Cc3ccccc3)c2ncn1CCCO	16.2 µM
CCCc1c(O)c(=O)c2c(OC)cc(OC)c3c4c(OC)cc(OC)c5c(=O)c(O)c(CCC)c(c1c23)c54	9.59 µM
Cc1nn(-c2ccccc2)c2c1CC(=O)Nc1ccccc1-2	> 100 µM
CC(C)C1OC2(C)OC(=N)C1(C#N)C(C#N)(C#N)C2C (centres undefined)	51.7 µM
COP(=O)(OC)C(=NCc1ccccc1)NNc1ccc([N+](=O)[O-])cc1	> 100 µM
Nc1ccc2nc3ccc(N)cc3[n+](-c3ccccc3)c2c1	> 100 µM
COc1ccc(C(Cc2cc(OC)c(OC)c(OC)c2)C(=O)O)cc1 (centres undefined)	> 100 µM
COc1ccc(-c2cnnn2-c2cc(OC)c3c(c2)OCO3)cc1	> 36.6 µM
CCCCCCCCC(=O)N(C)C1C2CN3CCC(O2)C13 (centres undefined)	> 100 µM
O=C1/C(=C/c2ccc([N+](=O)[O-])o2)Oc2ccc(Br)cc21	5.29 µM
CC(CN1CCN(C)CC1)CN1c2ccccc2Sc2ccc(C(F)(F)F)cc21 (centres undefined)	3.12 µM

====

tested on: A498 renal; assay: NCI tumour cell line growth inhibition, 48 h
QUANTITY MEASURED: TGI

COMPOUND	QUANTITY MEASURED	RESULT
COCC1N=C(c2cc(OC)c(OC)c(OC)c2-c2cc3c(cc2C2OCCCO2)OCO3)O[C@H]1c1ccccc1 (stereo partly drawn)	TGI	> 100 µM
CCCCCCCCC(=O)N(C)C1C2CN3CCC(O2)C13 (stereo not drawn)	TGI	> 100 µM
C(=C\c1nccs1)/c1cccc(/C=C/c2nccs2)n1	TGI	> 50 µM

====

# maps each entry to its TGI
test system: HT29 colon; assay: NCI tumour cell line growth inhibition, 48 h
QUANTITY MEASURED: TGI

COMPOUND STRING	RESULT
CC(=O)CCC(=O)C(=[N+]=[N-])S(=O)(=O)c1ccccc1	> 100 µM
c1cc(CSP234N5CCN2CCN3CCN4CC5)ccc1CSP123N4CCN1CCN2CCN3CC4	> 100 µM
CC(C)C[C@H](NC(=O)[C@H]1O[C@@H]1C(=O)O)C(=O)NCCc1ccc(O)cc1	> 100 µM
O=C(N/N=C/c1ccc([N+](=O)[O-])cc1)c1cccc2nc3ccccc3nc12	> 100 µM
COc1ccc(C/C(C)=C(\c2ccc(OCCN3CCOCC3)cc2)c2ccc(OC(=O)Cc3ccccc3)cc2)cc1	0.716 µM

====

tested on: OVCAR-8 ovarian; test: NCI tumour cell line growth inhibition, 48 h
QUANTITY MEASURED: TGI

COMPOUND	QUANTITY MEASURED	RESULT
CC(O)(/C=C/c1ccccc1)P(=O)(O)c1ccccc1 (centres undefined)	TGI	> 100 µM
COc1ccc(C(=O)COc2cccc(/C=C3\CSc4ccccc4C3=O)c2)cc1	TGI	6.71 µM
CC(=O)Nc1ccc(/C=N\N2C(=O)c3ccccc3C2=O)cc1	TGI	> 100 µM
COc1ccc(C(=O)/C=C/c2ccc(OCCSCCCCCCCCCCSCCOc3ccc(/C=C/C(=O)c4ccc(OC)cc4)cc3)cc2)cc1	TGI	> 100 µM
COCC1N=C(c2cc(OC)c(OC)c(OC)c2-c2cc3c(cc2C2OCCCO2)OCO3)O[C@H]1c1ccccc1 (some centres undefined)	TGI	> 100 µM
O=C(Cc1ccccc1)NN1C(=O)C(Cl)C1c1ccc([N+](=O)[O-])cc1 (centres undefined)	TGI	> 100 µM
Cc1nc(-n2[nH]c(C)c(CCO)c2=O)[nH]c(=O)c1CCO	TGI	> 100 µM
O=Cc1cn(Cc2cccc(Cl)c2)c2ccccc12	TGI	31.3 µM
COC(=O)C12OC(C)(C(CC(=O)OC(C)(C)C)C1=O)C1C(=O)N(c3ccccc3)C(=O)C12 (centres undefined)	TGI	> 100 µM

====

# maps each entry to its TGI
tested on: COLO 205 colon; experiment: NCI tumour cell line growth inhibition, 48 h

COMPOUND	VALUE UNITS	READOUT QUALIFIER	TGI
Cn1ccc2c(c1=O)C(=O)c1nccc3c1c-2nc1ccccc13	µM	=	2.96
CC1=C(O)C(=O)C[C@]2(C)[C@H]3CC=C4[C@@H]5CC(C)(C)CC[C@@H]5C(=O)[C@H](O)[C@@]4(C)[C@]3(C)CC[C@@H]12	µM	>	50
O/N=C/c1cc2c(cc1Br)OCO2	µM	>	100
C=C(C)C(=O)OC1CC2=CC(CC3(C)OC3C3OC(=O)C(=C)C13)OC2=O (configuration not stated)	µM	=	7.08
O=C1CC(c2ccc3c(c2)OCO3)Nc2cc3c(cc21)OCO3 (configuration not stated)	µM	=	0.885
COc1ccc(C2C(=O)C(Cl)N2Nc2nc(C)cc(=O)[nH]2)cc1OC (configuration not stated)	µM	>	100
C=CCN(N=O)C(=O)N(CCCC(NC(C)=O)C(=O)NCc1ccccc1)Cc1ccccc1 (configuration not stated)	µM	>	100
COc1ccc(C/C(C)=C(\c2ccc(OCCN3CCOCC3)cc2)c2ccc(OC(=O)Cc3ccccc3)cc2)cc1	µM	=	1.54
N#Cc1c(N)nc(N2CCOCC2)c(C#N)c1-c1ccc(Cl)cc1	µM	>	100
CC(C)(O)C1CCC(Nc2ccc3ncc(-c4cccc(C(F)(F)F)c4)n3n2)CC1 (configuration not stated)	µM	=	21.5
Cc1cc(C)nc(NC(=S)Nc2ccccc2Cl)c1	µM	>	100
O=c1[nH]nc2ccccc2c1Cl	µM	=	23.4

====

test system: HS 578T breast; test: NCI tumour cell line growth inhibition, 48 h
# maps each entry to its TGI
QUANTITY MEASURED: TGI

COMPOUND	RESULT
OCC1OC(NCCNCCNC2OC(CO)C(O)C(O)C2O)C(O)C(O)C1O (centres undefined)	> 100 µM
O=C1CCCCC1=C(I)I	> 100 µM
CSc1nc(-c2ccc(C)cc2)c(C#N)c(=O)[nH]1	> 100 µM
CCCCn1cnnc1NS(=O)(=O)c1cc(C)c(Cl)cc1SCC(=O)O	> 10 µM

Each recorded value in this set is attributed to PubChem BioAssay (NCI).
